measured on: human α-thrombin (recombinant) (human, UniProt P00734 328-363; P00734 364-622)
assay explanation: thrombin amidolytic assay with S2238, tight-binding fit
Description: Each data point is the mean±S.D. of at least three independent experiments. Thrombin amidolytic activity assays for all peptides were performed in 96-wells microtiter plates in 50 mM Tris buffer (pH 7.4) containing 100 mM NaCl and 1 mg/ml bovine serum albumin. […] The rates of formation of p-nitroaniline were followed by measuring the absorbance at 405 nm for 10 min with a Tecan InfinitePro M200 microplate reader from Tecan (Mannedorf, Switzerland). […]
readout kind: pKi
Lab note — pKi values are minus log10 of concentrations in M.

[
  {
    "binder": "SGGHQTAVPKIHKQGLGGDFEEIPSDEIIE (also called 512H) [avathrin S12H]",
    "reading": 8.91
  }
]

Prompt line: Given the binder SGGHQTAVPRISKQGLGGDFEEIPSDEIIE (also called K10R-avathrin) [avathrin K10R] , what is its reported pKi?
Response line: 9.76

Prompt line: Request: SDGHDTAVPKISKQGLGGDFEEIPSDEIIE [avathrin G2D, Q5D]
Response line: 9.03
